- Target desc: biotinylated human Gal-3 (hGal-3) (Homo sapiens)
- Sequence (P17931 whole entry): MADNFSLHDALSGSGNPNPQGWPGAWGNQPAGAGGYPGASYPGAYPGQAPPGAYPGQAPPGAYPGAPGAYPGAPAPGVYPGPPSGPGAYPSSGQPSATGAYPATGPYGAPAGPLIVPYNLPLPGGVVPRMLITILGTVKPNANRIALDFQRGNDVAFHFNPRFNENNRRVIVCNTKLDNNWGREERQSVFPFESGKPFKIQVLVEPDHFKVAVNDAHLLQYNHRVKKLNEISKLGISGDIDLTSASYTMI
- Method: Competitive binding assay: biotinylated hGal-3 binding to microplate-adsorbed asialofetuin (ASF), spectrophotometric
- Protocol conditions: Gal-3 inhibition, Table 4; read-out: IC50
Below, each entry is listed with its recorded IC50.
Expressed in nM, but write only the number.

Reference set (3 entries):
| Compound | Endpoint value |
| --- | --- |
| CN(Cc1ccccc1)C(=O)C(S[C@@H]1O[C@H](CO)[C@H](O)[C@H](n2cc(-c3cc(F)c(F)c(F)c3)nn2)[C@H]1O)C1(O)CCOCC1 (some centres unmarked) | 70 |
| O=C([C@H](S[C@@H]1O[C@H](CO)[C@H](O)[C@H](n2cc(-c3cc(F)c(F)c(F)c3)nn2)[C@H]1O)C1(O)CCOCC1)N1CCCCC1 [Example 2.41.208R.] | 1650 |
| O=C([C@@H](S[C@@H]1O[C@H](CO)[C@H](O)[C@H](n2cc(-c3cc(F)c(F)c(F)c3)nn2)[C@H]1O)C1(O)CCOCC1)N1CCc2ccccc21 [Example 2.41.209S.] | 100 |

Query string: Please provide the recorded IC50 for CN(CC1CC1)C(=O)[C@H](S[C@@H]1O[C@H](CO)[C@H](O)[C@H](n2cc(-c3cc(F)c(F)c(F)c3)nn2)[C@H]1O)C1(O)CCOCC1 [Example 2.41.218R.] , tested on biotinylated human Gal-3 (hGal-3) (Homo sapiens).
Result string: 2250
